- assay: growth inhibition of DIPG cells – cell-based, MIPE4.0 library, CellTiter-Glo luminescence, qHTS (AID 1347066);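 note: cells exposed to compound for 48 hours before readout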
- applied_conditions: SU-DIPG-VI viability, CellTiter-Glo ATP luminescence
Inconclusive results are not listed. The source made the active and inactive calls. No cut-off is given here; in the data, nearly all actives have AC50 up to about 30 µM.
quantity: AC50

Example cases with answers are listed next.
Field AC50 (entry Cn1cnc2c(F)c(Nc3ccc(Br)cc3F)c(C(=O)NOCCO)cc21 ) reads inactive

Field AC50 (entry CCCCCN(CCC12CC3CC(CC(C3)C1)C2)C(=O)NCCCc1ccncc1 ) reads 20.9 µM (active)

Field AC50 (entry O=C(Nc1ccccc1Br)N[C@@H]1CCN(c2ccc(C(F)(F)F)cn2)C1 ) reads inactive

Field AC50 (entry CC(=O)N(C)C1(c2ccccc2)CCN(CCC[C@]2(c3ccc(Cl)c(Cl)c3)CCCN(C(=O)c3ccccc3)C2)CC1 ) reads 33.2 µM (active)

Okay, now this compound:
Field AC50 (entry CN(C)C(N)=NC(=N)N ) reads inactive
